// reported glycan array binding signal (z-score) per item
biological target: Neu5Ac9Ac(a2-3)Gal(b1-4)GlcNAc; experiment: glycan array binding signal (z-score within array); higher = stronger binding; settings: glycan notation: IUPAC condensed, linker removed
This is one part of a sample in which the strongest signals are shown more often than they occur.
API doc: respond with a numeric literal and nothing else, no unit.

Worked cases, answers included:
PNA (Arachis hypogaea), P02872 (protein) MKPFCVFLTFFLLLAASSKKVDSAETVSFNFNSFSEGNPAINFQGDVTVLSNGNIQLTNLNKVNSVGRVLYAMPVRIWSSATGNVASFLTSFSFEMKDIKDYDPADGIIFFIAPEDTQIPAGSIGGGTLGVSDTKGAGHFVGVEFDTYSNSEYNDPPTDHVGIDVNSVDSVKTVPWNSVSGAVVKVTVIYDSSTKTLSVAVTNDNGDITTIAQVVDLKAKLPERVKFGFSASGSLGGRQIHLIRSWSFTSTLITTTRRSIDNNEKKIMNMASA | -0.073
MGL1 (Mus musculus), P49300 (protein) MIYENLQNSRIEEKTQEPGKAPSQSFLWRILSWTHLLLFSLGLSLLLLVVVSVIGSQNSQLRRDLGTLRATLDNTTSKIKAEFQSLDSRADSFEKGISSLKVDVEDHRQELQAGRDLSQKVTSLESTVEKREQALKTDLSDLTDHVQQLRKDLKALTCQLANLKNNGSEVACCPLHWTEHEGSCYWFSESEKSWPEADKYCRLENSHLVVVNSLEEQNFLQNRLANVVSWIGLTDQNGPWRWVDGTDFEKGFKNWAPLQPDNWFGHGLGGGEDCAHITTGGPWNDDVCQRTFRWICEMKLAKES | -0.495
CML1 (Coprinopsis cinerea) (protein) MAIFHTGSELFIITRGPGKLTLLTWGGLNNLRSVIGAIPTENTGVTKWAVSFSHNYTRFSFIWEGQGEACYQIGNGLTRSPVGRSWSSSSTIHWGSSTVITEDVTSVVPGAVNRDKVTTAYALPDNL | -0.348
Si Bti9 1b-HA (Solanum lycopersicum) (protein) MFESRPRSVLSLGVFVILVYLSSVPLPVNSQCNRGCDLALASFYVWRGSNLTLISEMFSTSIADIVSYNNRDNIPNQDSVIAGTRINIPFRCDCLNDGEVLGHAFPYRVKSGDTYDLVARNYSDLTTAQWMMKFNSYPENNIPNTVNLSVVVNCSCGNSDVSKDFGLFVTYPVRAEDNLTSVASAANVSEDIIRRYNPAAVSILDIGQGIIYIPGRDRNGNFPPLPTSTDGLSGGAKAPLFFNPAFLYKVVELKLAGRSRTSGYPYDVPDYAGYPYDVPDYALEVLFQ | -0.425

Return glycan array binding signal (z-score) (reported value) for this binder: Cohesin-marm-DC-ASGPR-CRD (protein) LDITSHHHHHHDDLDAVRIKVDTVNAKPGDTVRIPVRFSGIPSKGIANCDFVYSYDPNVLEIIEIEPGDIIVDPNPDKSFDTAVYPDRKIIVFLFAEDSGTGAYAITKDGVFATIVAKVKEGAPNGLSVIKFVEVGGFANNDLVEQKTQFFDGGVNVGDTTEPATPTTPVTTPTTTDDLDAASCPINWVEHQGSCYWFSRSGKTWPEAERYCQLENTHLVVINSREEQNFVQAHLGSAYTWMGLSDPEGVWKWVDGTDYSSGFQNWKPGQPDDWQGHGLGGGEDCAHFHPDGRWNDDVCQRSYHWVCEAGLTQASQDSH
-0.447
